Just for reference, patent US20200199204A1 is where these values come from.

biological target: HIV-1 Env of Q168.a2 (HIV-1); assay: cell-based or functional assay

>  <Binder>
CAP256-VRC26.09 (antibody, V domains shown) VH: EVQLVESGGGVVQPGRSLTLSCAASQFNFANYGMHWVRQAPGKGLEWVASISNDGTKKYHEESVWGRFTISKDNSKSTLFLQMNSLRIEDTALYFCVKDQREDECEEWWSDYYDFGRELPCRKSRGLGLAGIFDMWGHGTMVTVSS VL: QSALTQPPSVSAAPGQKVTISCSGNSSNIGNNFVSWYQQLPGTAPKLLIYENNRRPSGIPDRFSGSKSGTSATLAISGLQTGDEADYWCAVWGVRRGAGAVFGAGTKVTVLG

>  <neutralization IC50>
0.181 µg/mL

$$$$
>  <Binder>
CAP256-VRC26.07 (antibody, V domains shown) VH: EVQLVESGGGVVQPGRSLRLSCVGSQFSFNRYGMHWVRQAPGKGLEWVAGISFDGTDRYHADNVWGRFTISRDNSKNTLYLQMSSLRAEDTALYYCAKDLREDECEEWWSDYYDFGKKLPCRKSRGVAGVFDKWGQGTMVTVSS VL: QAVLTQPPSVSAAPGQNVTISCSGSGSNIGNNFVSWYQQRPGTAPKLLIYESNKRPSGIPDRFSGSKSGTSATLAITGLQTGDEAYYYCATWAARLNSARVFGTGTMVTVLG

>  <neutralization IC50>
> 50 µg/mL

$$$$
